Literature pIC50 values, system: Fibroblast growth factor receptor 4 (Homo sapiens).
pIC50: −log10 of the molar value.

line-notation: C=CC(=O)Nc1cc(N2CCN(CC)CC2)ccc1Nc1ncc(C#N)c(Nc2ccc(O)cc2OC(C)C)n1
pIC50: ≥ 8.00

line-notation: COc1cc(C)cc2cc(-c3cc([C@@H]4CCN(C(=O)/C=C/CN5CCOCC5)C4)n4ncnc(N)c34)sc12
pIC50: 8.02

line-notation: [2H]C1([2H])C([2H])([2H])C2(COc3ccc(F)c(-c4cn([C@H]5C[C@@H](N6CCN(C(C)=O)CC6)C5)c5ncnc(N)c45)c3)OC1([2H])C([2H])([2H])C2([2H])[2H]
pIC50: < 5.00

line-notation: C=CC(=O)Nc1cc(N2CCN(C)CC2)ccc1Nc1ncc2cc(-c3c(Cl)c(OC)cc(OC)c3Cl)c3nccn3c2n1
pIC50: > 7.30

line-notation: C=CC(=O)Nc1cc(N2CCC(N(C)C3COC3)CC2)ccc1Nc1ncc(C#N)c(Nc2ccccc2OC(C)C)n1
pIC50: ≥ 8.00

line-notation: C=CC(=O)Nc1cc(N2CCC(N3CCC(C)(O)CC3)CC2)ccc1Nc1ncc(C#N)c(Nc2ccccc2OC(C)C)n1
pIC50: ≥ 8.00

line-notation: C=CC(=O)Nc1cnn(CC)c1-c1n[nH]c2c1CC[C@@H](c1cc(OC)cc(OC)c1F)C2
pIC50: < 7.00

line-notation: CCN(C(=O)Nc1cc(NC2CC2)c(C#N)cn1)c1ccc(CN2CCN(C)CC2=O)c(C=O)n1
pIC50: 8.85

line-notation: C=CC(=O)N[C@H]1COC[C@H]1Nc1ncc2cc(-c3c(Cl)c(OC)cc(OC)c3Cl)nc(NCCS(=O)(=O)CC)c2n1
pIC50: 7.65

line-notation: C=CC(=O)Nc1cc(F)ccc1-c1n[nH]c2c1CCC(c1c(Cl)c(OC)cc(OC)c1Cl)=C2
pIC50: 6.93

line-notation: C=CS(=O)(=O)N1CC=C(c2cc3c(Oc4ccc(NC(=O)NC5CC5)c(Cl)c4)ccnc3cc2OC)CC1
pIC50: > 8.30

line-notation: C=CC(=O)Nc1cc(N2CCC(N3CCN(C)CC3)CC2)ccc1Nc1ncc(C#N)c(Nc2ccccc2OC(C)C)n1
pIC50: ≥ 8.00

line-notation: C=CC(=O)N[C@H]1C[C@H](C(=O)N(C)C)C[C@H]1Nc1ncc2cc(-c3c(Cl)c(OC)cc(OC)c3Cl)ccc2n1
pIC50: < 6.00

line-notation: COCCOCCNc1cc(NC(=O)N2c3nc(C=O)ccc3C3(OC)CC2C3)ncc1C#N
pIC50: 8.33
